test-protocol: modulators of HCV replicon luciferase signal, primary screen, HCV replication inhibitor project, Huh7 cells, luciferase reporter (AID 1109);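 also: huh7 hepatoma cells harbouring a luciferase neomycin HCV replicon reporter; luciferase luminescence as measure of HCV replicon replication; test concentration not given here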
condition-description: 48 h, higher = more signal
Below, each entry is listed with its recorded z-score.
Lab note: write the figure by itself, no unit.

>  <compound>
CCCC[C@H]1OB(O)C[C@H]2C1=C(COC)Cn1c(=O)n(-c3ccccc3)c(=O)n12

>  <z-score>
-0.673

$$$$

The compound identified as COc1ccc(-c2cc3c(c(-c4ccc(Oc5ccccc5)cc4)n2)[Si](C(C)C)(C(C)C)OC3)cn1 registered its z-score at -1.15

The compound identified as COc1ccc(CCNC(=O)[C@@]2(Sc3ccc(C)cc3)CC(=O)N(C3Cc4ccccc4C3)[C@@H]2c2ccc(CO)cc2I)cc1 registered its z-score at -2.48

The compound identified as C=CCOC(=O)[C@@H]1[C@H]2C(=O)O[C@H](c3ccccc3)[C@H](c3ccccc3)N2[C@H](c2ccc(OCCOC(=O)[C@H]3C[C@H]4C(=O)N5CCC[C@H]5C(=O)N4[C@H]3c3ccc(O)cc3)cc2)[C@@]12C(=O)Nc1ccc(I)cc12 registered its z-score at -1.5

The compound identified as COC(=O)[C@@]1(CCS(=O)(=O)c2ccccc2)N=C(c2ccc(OCCCO)cc2)O[C@H]1c1ccccc1CN=[N+]=[N-] registered its z-score at -2.38

The compound identified as C=CC[C@]1(C(=O)NCc2ccccc2)N=C(c2ccc(OCCCO)cc2)O[C@H]1c1ccccc1N=[N+]=[N-] registered its z-score at -0.368

The compound identified as OCCCC1=CC(c2cccs2)N(Cc2cc3c(cc2Br)OCO3)CC1 (stereo not given) registered its z-score at -0.807

The compound identified as C=C(COC)/C(=C/C[C@@H](OC(=O)c1ccncc1)c1ccc(CO)o1)c1cc(C(=O)OC)ccc1OC registered its z-score at -0.557

====

test-protocol: fission yeast growth modulation, primary screen, strain 972, OD600, 24 h, no modulator (AID 1090);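 also: basal condition with compound alone and no growth modifier present; test concentration not given here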
condition-description: S. pombe 972 growth, higher = more signal, called active from +8 up or from −8 down
measured-property: z-score
Lab note: write the figure by itself, no unit.

>  <compound>
OCCCC1=CC(c2cccs2)N(Cc2cc3c(cc2Br)OCO3)CC1 (stereo not drawn)

>  <z-score>
-1.05

$$$$

The compound identified as C=CCC(OC(C)=O)[C@@H]1[C@@H](N(Cc2ccc(-c3ccccc3)cc2)C(=O)Cc2ccc(OC)cc2)c2cc(OCCCO)ccc2N1C(=O)Cc1ccc2ccccc2c1 (stereo partly drawn) registered its z-score at -0.619

The compound identified as CN1C(=O)C2C=CC(C(O)C3CC=CCC3)N(N(c3ccccc3)c3ccccc3)C2C1=O (stereo not drawn) registered its z-score at 1.7

The compound identified as CCOC(=O)C[C@H]1[C@H](OC(=O)c2ccc(C(=O)c3ccccc3)cc2)[C@@H](NC(=O)CC(C)C)c2cc(OCCCO)ccc2N1C(=O)c1ccc2ccccc2n1 registered its z-score at 0.606

The compound identified as C=CC[C@@]1(C(=O)NCCN2CCOCC2)N=C(c2ccc(OCCCO)cc2)O[C@@H]1c1ccccc1N=[N+]=[N-] registered its z-score at -0.211

The compound identified as COCCOC(=O)N1C(=O)[C@@]2(c3ccccc31)[C@H](c1ccc(O)cc1)N1[C@H](c3ccccc3)[C@H](c3ccccc3)OC(=O)[C@H]1[C@@H]2C(=O)Nc1nc2ccccc2s1 registered its z-score at 0.396

====

test-protocol: small-molecule microarray binders of probe aShh, primary screen, biochemical, biotinylated probe, 635/667 nm fluorescence (AID 1114);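 also: probe is biotin-labelled aShh protein from a stem cell growth factor screen; measures binding of labelled protein to compounds printed on the slide; score merges feature fluorescence at 667 nm with signal-to-noise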
condition-description: higher = more signal
Would you mind labelling by composite z-score? At or over -0.1 is YES, under is NO.

Record excerpt, results attached:
>  <compound>
COCCOC(=O)N1C(=O)[C@@]2(c3cc(C#CCNC(N)=O)ccc31)[C@H](C(=O)N1CCN(c3ncccn3)CC1)[C@H]1C(=O)O[C@H](c3ccccc3)[C@H](c3ccccc3)N1[C@@H]2c1ccc(OCCO)cc1

>  <assigned-category>
NO

$$$$
>  <compound>
C[N+](C)(C)CCCCCCNC(=O)[C@@H]1C[C@@H]2C(=O)N[C@@H](Cc3ccccc3)C(=O)N2[C@@H]1c1cccc(OCCO)c1

>  <assigned-category>
YES

$$$$
>  <compound>
NCCCCCNC(=O)[C@@H]1C[C@@H]2C(=O)N[C@@H](Cc3ccccc3)C(=O)N2[C@@H]1c1ccc(O)cc1

>  <assigned-category>
NO

$$$$
>  <compound>
CCC[C@@H]1C[C@@]1(CCC)[C@@H](NC(=O)c1ccccc1)c1cccc(Cl)c1

>  <assigned-category>
YES

$$$$
>  <compound>
Cc1ccc(S[C@]2(C(=O)NC3CC3)CC(=O)N(Cc3ccccc3)[C@@H]2c2ccc(CO)cc2I)cc1

>  <assigned-category>
YES

$$$$
>  <compound>
C=CCOC(=O)[C@@H]1[C@H]2C(=O)O[C@H](c3ccccc3)[C@H](c3ccccc3)N2[C@H](c2ccc(OCCOC(=O)[C@H]3C[C@H]4C(=O)N5CCC[C@H]5C(=O)N4[C@H]3c3ccc(O)cc3)cc2)[C@@]12C(=O)Nc1ccc(I)cc12

>  <assigned-category>
YES

$$$$

Please look at the following compound next.
Qu. hey, is composite z-score for this one >= -0.1? CC1CC/C=C\[C@H]2OC34C=CCN(Cc5ccccc5)C(=O)[C@H]3N(CCCO)C(=O)[C@@H]4C2C(=O)O1 (some centres not stated)
Ans. NO

====

assayed-target: Neurogenic locus notch homolog protein 3 (Homo sapiens) (UniProt Q9UM47)
Sequence (Q9UM47 whole entry, looked up): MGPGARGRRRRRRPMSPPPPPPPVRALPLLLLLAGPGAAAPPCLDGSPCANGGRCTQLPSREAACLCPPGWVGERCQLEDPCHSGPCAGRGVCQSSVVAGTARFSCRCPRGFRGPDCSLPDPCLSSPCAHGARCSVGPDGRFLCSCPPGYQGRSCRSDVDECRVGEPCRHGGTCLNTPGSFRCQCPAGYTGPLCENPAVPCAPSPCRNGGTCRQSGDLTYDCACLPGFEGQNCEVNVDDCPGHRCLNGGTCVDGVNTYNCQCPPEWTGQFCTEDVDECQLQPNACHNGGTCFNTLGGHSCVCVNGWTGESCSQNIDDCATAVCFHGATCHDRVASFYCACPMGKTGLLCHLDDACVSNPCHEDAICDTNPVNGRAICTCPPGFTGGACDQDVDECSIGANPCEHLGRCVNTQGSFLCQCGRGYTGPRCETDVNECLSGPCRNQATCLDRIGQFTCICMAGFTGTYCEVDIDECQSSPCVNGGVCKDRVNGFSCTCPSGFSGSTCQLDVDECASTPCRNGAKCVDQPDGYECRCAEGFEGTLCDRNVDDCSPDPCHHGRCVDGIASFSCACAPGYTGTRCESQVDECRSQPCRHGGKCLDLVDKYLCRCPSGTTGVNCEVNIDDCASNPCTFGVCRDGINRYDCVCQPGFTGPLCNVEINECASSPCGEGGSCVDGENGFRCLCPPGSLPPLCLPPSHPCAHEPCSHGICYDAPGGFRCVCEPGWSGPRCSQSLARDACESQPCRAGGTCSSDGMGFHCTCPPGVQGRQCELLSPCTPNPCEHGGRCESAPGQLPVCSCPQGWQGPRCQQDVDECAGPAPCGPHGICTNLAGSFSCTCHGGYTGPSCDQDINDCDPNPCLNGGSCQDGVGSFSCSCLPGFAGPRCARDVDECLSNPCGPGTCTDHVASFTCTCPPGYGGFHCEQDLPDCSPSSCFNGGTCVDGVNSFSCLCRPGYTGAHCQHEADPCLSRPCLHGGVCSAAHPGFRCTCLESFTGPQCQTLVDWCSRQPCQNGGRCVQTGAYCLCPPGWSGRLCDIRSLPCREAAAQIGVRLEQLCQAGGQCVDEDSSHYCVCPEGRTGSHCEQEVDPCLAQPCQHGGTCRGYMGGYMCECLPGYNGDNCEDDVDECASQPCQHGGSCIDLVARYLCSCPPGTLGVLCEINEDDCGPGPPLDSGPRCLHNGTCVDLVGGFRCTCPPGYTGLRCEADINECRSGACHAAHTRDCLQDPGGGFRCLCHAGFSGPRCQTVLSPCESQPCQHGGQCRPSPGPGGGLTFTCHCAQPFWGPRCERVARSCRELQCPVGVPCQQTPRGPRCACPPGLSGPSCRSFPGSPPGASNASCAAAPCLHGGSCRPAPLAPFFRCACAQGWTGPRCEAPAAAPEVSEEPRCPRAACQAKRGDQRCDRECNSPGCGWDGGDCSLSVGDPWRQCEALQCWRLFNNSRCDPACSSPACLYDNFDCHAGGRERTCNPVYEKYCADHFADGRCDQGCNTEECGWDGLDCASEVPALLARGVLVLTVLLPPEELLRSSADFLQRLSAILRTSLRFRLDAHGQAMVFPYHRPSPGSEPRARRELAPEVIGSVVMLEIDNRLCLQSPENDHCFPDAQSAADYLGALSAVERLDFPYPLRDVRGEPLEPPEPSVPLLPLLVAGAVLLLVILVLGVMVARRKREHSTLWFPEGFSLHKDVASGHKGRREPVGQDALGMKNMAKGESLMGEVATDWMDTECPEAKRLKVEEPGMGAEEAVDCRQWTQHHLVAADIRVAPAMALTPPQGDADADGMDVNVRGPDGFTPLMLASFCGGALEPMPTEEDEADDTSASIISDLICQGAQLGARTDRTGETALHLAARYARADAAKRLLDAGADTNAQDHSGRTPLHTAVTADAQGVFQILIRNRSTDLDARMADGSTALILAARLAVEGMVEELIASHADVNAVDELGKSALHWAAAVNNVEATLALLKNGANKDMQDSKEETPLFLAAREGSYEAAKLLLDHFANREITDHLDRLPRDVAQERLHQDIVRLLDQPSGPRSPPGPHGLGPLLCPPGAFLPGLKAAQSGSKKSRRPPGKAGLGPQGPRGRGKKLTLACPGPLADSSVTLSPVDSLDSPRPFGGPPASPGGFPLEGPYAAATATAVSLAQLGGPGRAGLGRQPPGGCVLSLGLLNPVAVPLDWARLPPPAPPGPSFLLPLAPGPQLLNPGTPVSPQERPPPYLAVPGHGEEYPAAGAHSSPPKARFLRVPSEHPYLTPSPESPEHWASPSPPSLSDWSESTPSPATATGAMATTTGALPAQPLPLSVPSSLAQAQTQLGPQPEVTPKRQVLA
test-protocol: NOTCH3 binders on small-molecule microarray, primary screen, biochemical, 635/667 nm fluorescence (AID 1096)
condition-description: NOTCH3 binding, 635 nm fluorescence, higher = more signal
measured-property: composite z-score

>  <chemical-smiles>
C=C[C@H](C)[C@@H](OC(=O)Nc1ccc(OC)cc1)c1ccc(O)c2ccccc12

>  <composite z-score>
0.0291

$$$$

The molecule identified as C=CC[C@]1(C(=O)NCCCOC)N=C(c2ccc(OCCCO)cc2)O[C@H]1c1ccccc1CN=[N+]=[N-] registered its composite z-score at 0.854

The molecule identified as C=C(COC)/C(=C/C[C@H](OC(C)=O)c1ccc(CO)o1)c1cc(C(=O)OC)ccc1OC registered its composite z-score at 0.217

The molecule identified as C=C(CCCC)C(=O)CC[C@@H](OC(=O)c1ccccc1-c1ccccc1C(=O)O)c1ccc(OCCO)cc1 registered its composite z-score at 0.462

The molecule identified as C=C[C@H](OC)[C@@H](OC(=O)Nc1ccc(OC)cc1)c1ccc(O)c(F)c1 registered its composite z-score at -0.363

The molecule identified as C=C(COC)C(=O)CC[C@@H](OC(C)=O)c1ccc(CO)o1 registered its composite z-score at 0.612

The molecule identified as Cc1ccc(S[C@]2(C(=O)O)CC(=O)N(C(C)C)[C@@H]2c2ccc(CO)cc2I)cc1 registered its composite z-score at 0.271

The molecule identified as CN(C)CCCCCCNC(=O)[C@H]1C[C@H]2C(=O)N3CCC[C@H]3C(=O)N2[C@H]1c1ccc(O)cc1 registered its composite z-score at 1.07

The molecule identified as CCCC[C@H]1OB(O)C[C@H]2C1=C(COC)Cn1c(=O)n(-c3ccccc3)c(=O)n12 registered its composite z-score at 0.121

====

test-protocol: HepG2 liver cancer cell viability effects, profiling panel, resazurin fluorescence, 24 h, PK04 Diversity Set (AID 1172); also: test concentration not given here
condition-description: higher = more signal
Below, each entry is listed with its recorded z-score.
Lab note: write the figure by itself, no unit.

>  <compound>
COCCOC(=O)N1C(=O)[C@@]2(c3cc(C#CCC(C(=O)OC)C(=O)OC)ccc31)[C@H](c1ccccc1OCCO)N1[C@H](c3ccccc3)[C@H](c3ccccc3)OC(=O)[C@H]1[C@@H]2C(=O)NC[C@H](O)c1ccccc1

>  <meas-value>
-0.326

$$$$
>  <compound>
COc1cc2c(cc1OC)CN(C(=O)[C@H]1[C@@H]3C(=O)O[C@@H](c4ccccc4)[C@@H](c4ccccc4)N3[C@@H](c3ccc(O)cc3)[C@]13C(=O)Nc1ccccc13)CC2

>  <meas-value>
-0.102

$$$$

Proceeding to the next compound to report its z-score.
The compound identified as CN1C(=O)C2C=CC(C(O)c3ccccc3)N(N(c3ccccc3)c3ccccc3)C2C1=O (stereo not drawn) registered its z-score at -0.112

====

test-protocol: RPMI8226 myeloma cell viability, profiling panel, resazurin fluorescence, basal, 24 h, PK04 Diversity Set (AID 1180);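 also: RPMI8826 multiple myeloma cell line at 5000 cells per well; test concentration not given here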
condition-description: higher = more signal
Would you mind labelling by z-score? At or over 0.4 is 1, under is -1.

Record excerpt, results attached:
>  <compound>
CN(C)CCCC[C@@H]1NC(=O)[C@@H]2C[C@H](C(=O)NCCCCCCN)[C@H](c3cccc(OCCO)c3)N2C1=O

>  <assigned-category>
-1

$$$$
>  <compound>
CCCCCN1CC=CC23O[C@@H]4/C=C\CCC(C)OC(=O)C4[C@H]2C(=O)N(C(C)CO)[C@@H]3C1=O (stereo partly drawn)

>  <assigned-category>
1

$$$$
>  <compound>
C=C(C)[C@@H]1CC=C(C(O)C2C=CC3C(=O)N(c4ccccc4)C(=O)C3N2Nc2ccccc2)CC1 (stereo partly drawn)

>  <assigned-category>
-1

$$$$
>  <compound>
Cc1ccc(S[C@]2(C(=O)NCCCN(C)C)CC(=O)N(Cc3cc(C(F)(F)F)cc(C(F)(F)F)c3)[C@@H]2c2ccc(CO)cc2)cc1

>  <assigned-category>
-1

$$$$

Qu. hey, is z-score for this one >= 0.4? C=C(/C(=C/C[C@H](OC(C)=O)c1ccc(CO)o1)c1cc(C(=O)OC)ccc1OC)C(C)C
Ans. -1

Qu. hey, is z-score for this one >= 0.4? COCCOC(=O)N1C(=O)[C@@]2(c3cc(C#Cc4ccc(OC)cc4)ccc31)[C@H](c1ccccc1OCCO)N1[C@H](c3ccccc3)[C@H](c3ccccc3)OC(=O)[C@H]1[C@@H]2C(=O)NC[C@H](O)c1ccccc1
Ans. -1
